Quick list: CFU decrease/increase with respect to untreated controls per entry.
- Test system: S. aureus (ATCC 25293)
- ASSAY TEXT: In vitro anti-S. aureus CFU assay
- Assay type: cell-based, Staphylococcus aureus
- TEST CONTEXT: peptide 0.064 mg/mL + CuCl2 (0.9:1), 3 h, pH 5.4
Residues, ends and D or L forms follow the SMILES beside them.
MEASURED ATTRIBUTE: CFU decrease/increase with respect to untreated controls (%)

{"columns": ["COMPOUND", "RESULT VALUE"],
 "data": [
  ["CC[C@H](C)[C@H](NC(=O)[C@H](C)NC(=O)[C@@H](NC(C)=O)C(C)C)C(=O)N[C@@H](C)C(=O)N[C@@H](CC(C)C)C(=O)N[C@@H](CCCCN)C(=O)N[C@@H](C)C(=O)N[C@@H](C)C(=O)N[C@@H](Cc1c[nH]cn1)C(=O)N[C@@H](Cc1ccc(O)cc1)C(=O)N[C@@H](Cc1c[nH]cn1)C(=O)N[C@H](C(=O)N[C@@H](Cc1c[nH]cn1)C(=O)N[C@@H](CCCCN)C(=O)N[C@@H](CCC(=O)O)C(N)=O)[C@@H](C)O [L2, Ac-VAIALKAAHYHTHKE-NH2] (Ac-VAIALKAAHYHTHKE-NH2)", -18],
  ["CC[C@H](C)[C@H](NC(=O)[C@H](C)NC(=O)[C@@H](N)C(C)C)C(=O)N[C@@H](C)C(=O)N[C@@H](CC(C)C)C(=O)N[C@@H](CCCCN)C(=O)N[C@@H](C)C(=O)N[C@@H](C)C(=O)N[C@@H](Cc1c[nH]cn1)C(=O)N[C@@H](Cc1ccc(O)cc1)C(=O)N[C@@H](Cc1c[nH]cn1)C(=O)N[C@H](C(=O)N[C@@H](Cc1c[nH]cn1)C(=O)N[C@@H](CCCCN)C(=O)N[C@@H](CCC(=O)O)C(N)=O)[C@@H](C)O [L3, VAIALKAAHYHTHKE-NH2] (H-VAIALKAAHYHTHKE-NH2)", -2]
]}

* * *

- Tested on: E. coli (ATCC 25922)
- ASSAY TEXT: In vitro anti-E. coli CFU assay
- Type: cell-based, Escherichia coli
- TEST CONTEXT: peptide 0.032 mg/mL + ZnCl2 (0.9:1), 24 h, pH 5.4; per 0.1 mL
Residues, ends and D or L forms follow the SMILES beside them.
MEASURED ATTRIBUTE: mean CFU number ± S.D.

{"columns": ["MOLECULE", "MEASURED ATTRIBUTE", "RESULT VALUE"],
 "data": [
  ["CC[C@H](C)[C@H](NC(=O)[C@H](C)NC(=O)[C@@H](NC(C)=O)C(C)C)C(=O)N[C@@H](C)C(=O)N[C@@H](CC(C)C)C(=O)N[C@@H](CCCCN)C(=O)N[C@@H](C)C(=O)N[C@@H](C)C(=O)N[C@@H](Cc1c[nH]cn1)C(=O)N[C@@H](Cc1ccc(O)cc1)C(=O)N[C@@H](Cc1c[nH]cn1)C(=O)N[C@H](C(=O)N[C@@H](Cc1c[nH]cn1)C(=O)N[C@@H](CCCCN)C(=O)N[C@@H](CCC(=O)O)C(=O)O)[C@@H](C)O [L1, Ac-VAIALKAAHYHTHKE] (Ac-VAIALKAAHYHTHKE-OH)", "mean CFU number ± S.D.", "163 ± 18 CFU"]
]}

* * *

Quick list: logβ [ZnL] per entry.
- TEST CONTEXT: T = 298 K, I = 0.1 M (KCl); charges omitted
Residues, ends and D or L forms follow the SMILES beside them.

{"columns": ["COMPOUND", "logβ [ZnL]"],
 "data": [
  ["CC[C@H](C)[C@H](NC(=O)[C@H](C)NC(=O)[C@@H](NC(C)=O)C(C)C)C(=O)N[C@@H](C)C(=O)N[C@@H](CC(C)C)C(=O)N[C@@H](CCCCN)C(=O)N[C@@H](C)C(=O)N[C@@H](C)C(=O)N[C@@H](Cc1c[nH]cn1)C(=O)N[C@@H](Cc1ccc(O)cc1)C(=O)N[C@@H](Cc1c[nH]cn1)C(=O)N[C@H](C(=O)N[C@@H](Cc1c[nH]cn1)C(=O)N[C@@H](CCCCN)C(=O)N[C@@H](CCC(=O)O)C(N)=O)[C@@H](C)O [L2, Ac-VAIALKAAHYHTHKE-NH2] (Ac-VAIALKAAHYHTHKE-NH2)", "6.52(5)"],
  ["CC[C@H](C)[C@H](NC(=O)[C@H](C)NC(=O)[C@@H](N)C(C)C)C(=O)N[C@@H](C)C(=O)N[C@@H](CC(C)C)C(=O)N[C@@H](CCCCN)C(=O)N[C@@H](C)C(=O)N[C@@H](C)C(=O)N[C@@H](Cc1c[nH]cn1)C(=O)N[C@@H](Cc1ccc(O)cc1)C(=O)N[C@@H](Cc1c[nH]cn1)C(=O)N[C@H](C(=O)N[C@@H](Cc1c[nH]cn1)C(=O)N[C@@H](CCCCN)C(=O)N[C@@H](CCC(=O)O)C(=O)O)[C@@H](C)O [WT, VAIALKAAHYHTHKE, reference compound] (H-VAIALKAAHYHTHKE-OH)", "10.35(8)"],
  ["CC[C@H](C)[C@H](NC(=O)[C@H](C)NC(=O)[C@@H](NC(C)=O)C(C)C)C(=O)N[C@@H](C)C(=O)N[C@@H](CC(C)C)C(=O)N[C@@H](CCCCN)C(=O)N[C@@H](C)C(=O)N[C@@H](C)C(=O)N[C@@H](Cc1c[nH]cn1)C(=O)N[C@@H](Cc1ccc(O)cc1)C(=O)N[C@@H](Cc1c[nH]cn1)C(=O)N[C@H](C(=O)N[C@@H](Cc1c[nH]cn1)C(=O)N[C@@H](CCCCN)C(=O)N[C@@H](CCC(=O)O)C(=O)O)[C@@H](C)O [L1, Ac-VAIALKAAHYHTHKE] (Ac-VAIALKAAHYHTHKE-OH)", "5.21(2)"],
  ["CC[C@H](C)[C@H](NC(=O)[C@H](C)NC(=O)[C@@H](N)C(C)C)C(=O)N[C@@H](C)C(=O)N[C@@H](CC(C)C)C(=O)N[C@@H](CCCCN)C(=O)N[C@@H](C)C(=O)N[C@@H](C)C(=O)N[C@@H](Cc1c[nH]cn1)C(=O)N[C@@H](Cc1ccc(O)cc1)C(=O)N[C@@H](Cc1c[nH]cn1)C(=O)N[C@H](C(=O)N[C@@H](Cc1c[nH]cn1)C(=O)N[C@@H](CCCCN)C(=O)N[C@@H](CCC(=O)O)C(N)=O)[C@@H](C)O [L3, VAIALKAAHYHTHKE-NH2] (H-VAIALKAAHYHTHKE-NH2)", "9.94(4)"]
]}

* * *

- Test system: E. coli (ATCC 25922)
- ASSAY TEXT: In vitro anti-E. coli CFU assay
- Format: cell-based, Escherichia coli
- TEST CONTEXT: peptide 0.032 mg/mL + ZnCl2 (0.9:1), 24 h, pH 5.4; per 0.1 mL
Residues, ends and D or L forms follow the SMILES beside them.
MEASURED ATTRIBUTE: mean CFU number ± S.D. (CFU)

{"columns": ["MOLECULE", "TARGET UNDER TEST", "MEASURED ATTRIBUTE", "RESULT VALUE"],
 "data": [
  ["CC[C@H](C)[C@H](NC(=O)[C@H](C)NC(=O)[C@@H](N)C(C)C)C(=O)N[C@@H](C)C(=O)N[C@@H](CC(C)C)C(=O)N[C@@H](CCCCN)C(=O)N[C@@H](C)C(=O)N[C@@H](C)C(=O)N[C@@H](Cc1c[nH]cn1)C(=O)N[C@@H](Cc1ccc(O)cc1)C(=O)N[C@@H](Cc1c[nH]cn1)C(=O)N[C@H](C(=O)N[C@@H](Cc1c[nH]cn1)C(=O)N[C@@H](CCCCN)C(=O)N[C@@H](CCC(=O)O)C(N)=O)[C@@H](C)O [L3, VAIALKAAHYHTHKE-NH2] (H-VAIALKAAHYHTHKE-NH2)", "E. coli (ATCC 25922)", "mean CFU number ± S.D.", 202],
  ["CC[C@H](C)[C@H](NC(=O)[C@H](C)NC(=O)[C@@H](NC(C)=O)C(C)C)C(=O)N[C@@H](C)C(=O)N[C@@H](CC(C)C)C(=O)N[C@@H](CCCCN)C(=O)N[C@@H](C)C(=O)N[C@@H](C)C(=O)N[C@@H](Cc1c[nH]cn1)C(=O)N[C@@H](Cc1ccc(O)cc1)C(=O)N[C@@H](Cc1c[nH]cn1)C(=O)N[C@H](C(=O)N[C@@H](Cc1c[nH]cn1)C(=O)N[C@@H](CCCCN)C(=O)N[C@@H](CCC(=O)O)C(N)=O)[C@@H](C)O [L2, Ac-VAIALKAAHYHTHKE-NH2] (Ac-VAIALKAAHYHTHKE-NH2)", "E. coli (ATCC 25922)", "mean CFU number ± S.D.", 150],
  ["CC[C@H](C)[C@H](NC(=O)[C@H](C)NC(=O)[C@@H](N)C(C)C)C(=O)N[C@@H](C)C(=O)N[C@@H](CC(C)C)C(=O)N[C@@H](CCCCN)C(=O)N[C@@H](C)C(=O)N[C@@H](C)C(=O)N[C@@H](Cc1c[nH]cn1)C(=O)N[C@@H](Cc1ccc(O)cc1)C(=O)N[C@@H](Cc1c[nH]cn1)C(=O)N[C@H](C(=O)N[C@@H](Cc1c[nH]cn1)C(=O)N[C@@H](CCCCN)C(=O)N[C@@H](CCC(=O)O)C(=O)O)[C@@H](C)O [WT, VAIALKAAHYHTHKE, reference compound] (H-VAIALKAAHYHTHKE-OH)", "E. coli (ATCC 25922)", "mean CFU number ± S.D.", 224]
]}

Data provenance is paper PMC10600247.
